test system: PA-1; test: Primary qHTS to identify gynecologic anti-cancer compounds using libraries of approved drugs and bioactive compounds (AID 1345084); conditions: Gynecologic cancer cell panel viability, ATPlite luminescence, 48 h; series mostly up to 57.5 µM; also: nearly all actives have a fitted effect of over 55% in size
Inconclusive results are not listed. Activity calls are given as the source filed them. Calls follow the shape of the dose curve; as a rule, active = well fitted cell-killing curve with a large enough effect; inconclusive = small, poorly fitted or top-dose-only effect, or effect the other way; inactive = flat fitted curve, though single readings scatter. *1 amine or outer side, *2 acyl side, *3 side chain or, on linkers, in order; H or OH if unused. Where a SMILES comes first, the peptide text is derived from it. Bridges are numbered along the chain shown (N, C = ends). [ ]: non-standard residue; d: D form. The star is where a group is joined. pTerphenylCO(4''-OnC5H11) = CCCCCOc1ccc(-c2ccc(-c3ccc(C(=O)*)cc3)cc2)cc1; Orn(4R-OH,5R-OH) = O=C([C@H](C[C@@H](O)[C@@H](O)N[*:3])N[*:1])[*:2]; hTyr(3S-OH,4S-OH) = N[C@H](C(=O)O)[C@H](O)[C@@H](O)c1ccc(O)cc1; Pro(3S-OH,4S-Me) = C[C@H]1CN[C@H](C(=O)O)[C@H]1O; Hyp = O=C(O)[C@@H]1C[C@@H](O)CN1
endpoint: outcome

# example entries with known answers
compound: COc1c2c(nc3occc13)C(CC=C(C)C)(OC)C(O)CC2 (configuration not stated)
outcome: inactive

compound: COc1ccc2[nH]c(=O)c3c(c2c1)OC(C)(C)C=C3
outcome: inactive

compound: C[C@H]1CC[C@@]2(OC1)O[C@H]1CC3C4CC[C@H]5C[C@@H](O)CC[C@]5(C)C4=CC(=O)[C@]3(C)[C@H]1[C@@H]2C (some centres not stated)
outcome: inactive

compound: COc1ccc([C@H]2Cc3cccc(O)c3C(=O)O2)cc1OC
outcome: inactive

compound: Cc1cccc(-c2[nH]ncc2-c2ccc(F)c(-c3cnn(CCO)c3)c2)n1
outcome: inactive

[ask] # outcome lookup, item C=C(CCC1C(C)(O)CCC2C(C)(C)C(O)CCC12C)C(O)CO (configuration not stated)
[reply] inactive

[ask] # outcome lookup, item `CN(C)C(=O)C(=O)c1cn(C)c2cc(Cl)c(C(=O)N3CCC(Cc4ccc(F)cc4)CC3)cc12`
[reply] inactive

[ask] # outcome lookup, item `COc1ccc(-c2c(C)nn3c(NCCN4CCOCC4)cc(C)nc23)cc1OC`
[reply] inactive

[ask] # outcome lookup, item CCCCCOc1ccc(-c2ccc(-c3ccc(C(=O)N[C@H]4C[C@@H](O)[C@@H](O)NC(=O)[C@@H]5[C@@H](O)[C@@H](C)CN5C(=O)[C@H]([C@@H](C)O)NC(=O)[C@H]([C@H](O)[C@@H](O)c5ccc(O)cc5)NC(=O)[C@@H]5C[C@@H](O)CN5C(=O)[C@H]([C@@H](C)O)NC4=O)cc3)cc2)cc1 ({pTerphenylCO(4''-OnC5H11)}-[Orn(4R-OH,5R-OH)]T[Hyp][hTyr(3S-OH,4S-OH)]T[Pro(3S-OH,4S-Me)]; lactam 1-C)
[reply] inactive

[ask] # outcome lookup, item O=C(O)c1cccc(-c2ccc(-c3cn(C(=O)N4CCCCC4Cc4ccccc4)nn3)cc2)c1 (configuration not stated)
[reply] inactive

[ask] # outcome lookup, item `CC(C)(O)/C=C/C(=O)[C@](C)(O)[C@H]1[C@H](O)C[C@@]2(C)[C@@H]3CC=C4[C@@H](C[C@H](O[C@@H]5O[C@H](CO)[C@@H](O)[C@H](O)[C@H]5O)C(=O)C4(C)C)[C@]3(C)C(=O)C[C@]12C`
[reply] inactive

[ask] # outcome lookup, item `O=C(O)C1=CO[C@@H](O[C@@H]2O[C@H](CO)[C@@H](O)[C@H](O)[C@H]2O)[C@@H]2C(CO)=CC[C@H]12`
[reply] inactive
